In this section, each of the variants is paired with its reported self-cleavage.
B1: HDV Ribozyme (parent)
chain: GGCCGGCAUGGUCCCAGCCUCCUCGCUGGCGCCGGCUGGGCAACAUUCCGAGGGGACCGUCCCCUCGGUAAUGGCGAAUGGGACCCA

# Variants of: B1
# METHOD: self-cleavage, relative activity (ratio to wild type); higher = more cleavage; co-transcriptional

[
  {
    "MUTATION_LIST": "G52A G73A",
    "self-cleavage": 0.602
  },
  {
    "MUTATION_LIST": "C24G G29C",
    "self-cleavage": 0
  },
  {
    "MUTATION_LIST": "C36A C48U",
    "self-cleavage": 0.116
  },
  {
    "MUTATION_LIST": "U46G C58G",
    "self-cleavage": 0.89
  },
  {
    "MUTATION_LIST": "A16U C58A",
    "self-cleavage": 1.09
  },
  {
    "MUTATION_LIST": "A42C G67A",
    "self-cleavage": 0.249
  },
  {
    "MUTATION_LIST": "C18A A83U",
    "self-cleavage": 0.237
  },
  {
    "MUTATION_LIST": "C19G C57U",
    "self-cleavage": 0.0528
  },
  {
    "MUTATION_LIST": "C33U G74A",
    "self-cleavage": 0.277
  },
  {
    "MUTATION_LIST": "G28U C30U",
    "self-cleavage": 0
  },
  {
    "MUTATION_LIST": "C41A C66U",
    "self-cleavage": 0.9
  },
  {
    "MUTATION_LIST": "U23G U60G",
    "self-cleavage": 0.665
  },
  {
    "MUTATION_LIST": "G5A G52U",
    "self-cleavage": 0.237
  },
  {
    "MUTATION_LIST": "U23A C62A",
    "self-cleavage": 0.872
  },
  {
    "MUTATION_LIST": "U23G G68A",
    "self-cleavage": 0.565
  },
  {
    "MUTATION_LIST": "G25C G80C",
    "self-cleavage": 0.17
  },
  {
    "MUTATION_LIST": "C3G U79C",
    "self-cleavage": 0.182
  },
  {
    "MUTATION_LIST": "G39U G55U",
    "self-cleavage": 0.677
  },
  {
    "MUTATION_LIST": "G35A A87C",
    "self-cleavage": 0.444
  },
  {
    "MUTATION_LIST": "C26G U47C",
    "self-cleavage": 0.95
  },
  {
    "MUTATION_LIST": "G54A G74C",
    "self-cleavage": 0.194
  },
  {
    "MUTATION_LIST": "C30A C64G",
    "self-cleavage": 0.485
  },
  {
    "MUTATION_LIST": "A8C A71C",
    "self-cleavage": 0.308
  },
  {
    "MUTATION_LIST": "G34C G38U",
    "self-cleavage": 0.0378
  },
  {
    "MUTATION_LIST": "C15G C48U",
    "self-cleavage": 0.237
  },
  {
    "MUTATION_LIST": "G35U U69C",
    "self-cleavage": 0.253
  },
  {
    "MUTATION_LIST": "G38U C48A",
    "self-cleavage": 0.0978
  },
  {
    "MUTATION_LIST": "U60A G81A",
    "self-cleavage": 0.514
  },
  {
    "MUTATION_LIST": "U12G G50U",
    "self-cleavage": 0.87
  },
  {
    "MUTATION_LIST": "U23G G25A",
    "self-cleavage": 0.142
  },
  {
    "MUTATION_LIST": "U20C G59U",
    "self-cleavage": 0.128
  },
  {
    "MUTATION_LIST": "A8G A70U",
    "self-cleavage": 0.831
  },
  {
    "MUTATION_LIST": "G54C A83G",
    "self-cleavage": 0.905
  },
  {
    "MUTATION_LIST": "G2A C57A",
    "self-cleavage": 0.258
  },
  {
    "MUTATION_LIST": "C44G U69G",
    "self-cleavage": 0.443
  },
  {
    "MUTATION_LIST": "C36G C57A",
    "self-cleavage": 0.177
  },
  {
    "MUTATION_LIST": "C61A G67C",
    "self-cleavage": 0.831
  },
  {
    "MUTATION_LIST": "G6C C63G",
    "self-cleavage": 0.246
  },
  {
    "MUTATION_LIST": "A8C C13A",
    "self-cleavage": 0.266
  },
  {
    "MUTATION_LIST": "C22U C61A",
    "self-cleavage": 0.641
  },
  {
    "MUTATION_LIST": "U20G C75G",
    "self-cleavage": 0
  },
  {
    "MUTATION_LIST": "C15G C62A",
    "self-cleavage": 0.554
  },
  {
    "MUTATION_LIST": "G39U U79G",
    "self-cleavage": 0.277
  },
  {
    "MUTATION_LIST": "C63U U65G",
    "self-cleavage": 0.96
  },
  {
    "MUTATION_LIST": "C30U G31U",
    "self-cleavage": 0.0268
  },
  {
    "MUTATION_LIST": "C63A G82A",
    "self-cleavage": 0.408
  },
  {
    "MUTATION_LIST": "U27C A77C",
    "self-cleavage": 0.192
  },
  {
    "MUTATION_LIST": "G5U C14G",
    "self-cleavage": 0.185
  },
  {
    "MUTATION_LIST": "G39U G67U",
    "self-cleavage": 0.727
  },
  {
    "MUTATION_LIST": "C36A C63G",
    "self-cleavage": 0.208
  },
  {
    "MUTATION_LIST": "A43C C58G",
    "self-cleavage": 0.443
  },
  {
    "MUTATION_LIST": "C44U C48G",
    "self-cleavage": 0.567
  },
  {
    "MUTATION_LIST": "A16U C26G",
    "self-cleavage": 0.831
  },
  {
    "MUTATION_LIST": "C14U C48G",
    "self-cleavage": 1.08
  },
  {
    "MUTATION_LIST": "G6U C7U",
    "self-cleavage": 0.151
  },
  {
    "MUTATION_LIST": "C4A C41G",
    "self-cleavage": 0.0519
  },
  {
    "MUTATION_LIST": "A51C C62U",
    "self-cleavage": 1.08
  },
  {
    "MUTATION_LIST": "G1U G80U",
    "self-cleavage": 0.479
  },
  {
    "MUTATION_LIST": "C3G A87C",
    "self-cleavage": 0.861
  },
  {
    "MUTATION_LIST": "C26U C44A",
    "self-cleavage": 1.03
  },
  {
    "MUTATION_LIST": "U69G G74C",
    "self-cleavage": 0.383
  },
  {
    "MUTATION_LIST": "A16C C18A",
    "self-cleavage": 0.0665
  },
  {
    "MUTATION_LIST": "G5A G76C",
    "self-cleavage": 0.0959
  },
  {
    "MUTATION_LIST": "A51C G52A",
    "self-cleavage": 1.04
  },
  {
    "MUTATION_LIST": "C21G G53U",
    "self-cleavage": 0.0248
  },
  {
    "MUTATION_LIST": "C36U U65G",
    "self-cleavage": 0.582
  },
  {
    "MUTATION_LIST": "G5C U65G",
    "self-cleavage": 0.0978
  },
  {
    "MUTATION_LIST": "G28A A45U",
    "self-cleavage": 0.128
  },
  {
    "MUTATION_LIST": "C18A G34C",
    "self-cleavage": 0.136
  },
  {
    "MUTATION_LIST": "C14A A70U",
    "self-cleavage": 0.344
  },
  {
    "MUTATION_LIST": "G53U G59A",
    "self-cleavage": 1.14
  },
  {
    "MUTATION_LIST": "C15A U65C",
    "self-cleavage": 0.519
  },
  {
    "MUTATION_LIST": "C32U C75U",
    "self-cleavage": 0.315
  },
  {
    "MUTATION_LIST": "G6U G59A",
    "self-cleavage": 0.544
  },
  {
    "MUTATION_LIST": "G25U G81C",
    "self-cleavage": 0.0923
  },
  {
    "MUTATION_LIST": "C21A C86U",
    "self-cleavage": 0.0308
  },
  {
    "MUTATION_LIST": "A71G A78C",
    "self-cleavage": 0.138
  },
  {
    "MUTATION_LIST": "G67A G68A",
    "self-cleavage": 0.946
  },
  {
    "MUTATION_LIST": "A8U C15A",
    "self-cleavage": 0.369
  },
  {
    "MUTATION_LIST": "A8C G34C",
    "self-cleavage": 0.178
  },
  {
    "MUTATION_LIST": "G55C G81C",
    "self-cleavage": 0.141
  },
  {
    "MUTATION_LIST": "C36G G50C",
    "self-cleavage": 0.0437
  },
  {
    "MUTATION_LIST": "A51U C64U",
    "self-cleavage": 0.927
  },
  {
    "MUTATION_LIST": "G10A U37C",
    "self-cleavage": 0.695
  },
  {
    "MUTATION_LIST": "G50A G53A",
    "self-cleavage": 0.803
  },
  {
    "MUTATION_LIST": "U23A U47C",
    "self-cleavage": 1.14
  },
  {
    "MUTATION_LIST": "C7U G55U",
    "self-cleavage": 0.815
  },
  {
    "MUTATION_LIST": "G38C G59U",
    "self-cleavage": 0.233
  },
  {
    "MUTATION_LIST": "G2U C66U",
    "self-cleavage": 0.0895
  },
  {
    "MUTATION_LIST": "C3U C44A",
    "self-cleavage": 0.492
  },
  {
    "MUTATION_LIST": "C7U C49G",
    "self-cleavage": 0.665
  }
]

Source listed as the RNAGym collection of RNA variant scans (doi:10.7554/elife.80360).
